Attribute: IC50
Target: BTK enzyme (recombinant full-length BTK, hBTK) (Homo sapiens (Human))
Test: Btk enzyme activity assay, LANCE TR-FRET
Type: biochemical
Conditions: 50 pM hBTK, 2 μM biotin-A5-peptide, 25 μM ATP; 60 minute compound & enzyme incubation; read-out: BTK binding IC50
Measured quantity: IC50 (nM)

Compound | U | Reading
CCOc1cc(C(=O)Nc2cc(C(F)(F)F)ccn2)ccc1-c1nc([C@@H]2CC[C@@H](C(=O)O)O2)n2ccnc(N)c12 [Example 116] | nM | 22
CC1(C)[C@@H](C(=O)O)CC[C@@]1(C)c1nc(-c2ccc(C(=O)Nc3cc(C(F)(F)F)ccn3)cc2)c2c(N)nccn12 [Example 142] | nM | 1.2
Nc1nccn2c([C@H]3CC[C@@H](C(=O)N4CCC[C@@H]4C(=O)O)C3)nc(-c3ccc(C(=O)Nc4cc(C(F)(F)F)ccn4)cc3)c12 [Example 18] | nM | 2.6
C[C@@]1(C(=O)O)CCCN(c2nc(-c3ccc(C(=O)Nc4cc(C(F)(F)F)ccn4)cc3)c3c(N)nccn23)C1 [Example 41] | nM | 7.6
Cc1cnc(N)c2c(-c3ccc(C(=O)Nc4ccccn4)cc3)nc([C@H]3CN([C@H]4CC[C@](C)(C(=O)O)CC4)CCO3)n12 [Example 199] | nM | 5.9
CC(C)C1(C(=O)O)CCC(C)(c2nc(-c3ccc(C(=O)Nc4cc(C(F)(F)F)ccn4)cc3)c3c(N)nccn23)C1 (stereo not shown) [Example 145] | nM | 57.2
C[C@]1(C(=O)O)CC[C@H](N2CCO[C@@H](c3nc(-c4ccc(C(=O)Nc5cc(C6CC6)ccn5)cc4F)c4c(N)nccn34)C2)CC1 [Example 197] | nM | 1.2
Nc1nccn2c(C34CC(C(=O)O)(C3)C4)nc(-c3ccc(C(=O)Nc4cc(C(F)(F)F)ccn4)cc3)c12 [Example 34] | nM | 0.39
C[C@H]1CO[C@@H](c2nc(-c3ccc(C(=O)Nc4cc(C5CC5)ccn4)cc3F)c3c(N)ncc(Cl)n23)CN1[C@H]1CC[C@](C)(C(=O)O)CC1 [Example 209] | nM | 0.76
Nc1nccn2c([C@@H]3CC[C@H](CC(=O)O)C3)nc(-c3ccc(C(=O)Nc4cc(C(F)(F)F)ccn4)cc3)c12 [Example 54] | nM | 0.18
CCOc1cc(C(=O)Nc2cc(C(F)(F)F)ccn2)ccc1-c1nc([C@@H]2CC[C@](C(=O)O)(C(C)C)C2)n2ccnc(N)c12 [Example 61] | nM | 2.4
CC1(C(=O)O)CCC(N2CCC[C@@H](c3nc(-c4ccc(C(=O)Nc5cc(C(F)(F)F)ccn5)cc4F)c4c(N)nccn34)C2)CC1 (stereo partly shown) [Example 182] | nM | 1.9
C[C@]1(C(=O)O)CCCN(c2nc(-c3ccc(C(=O)Nc4cc(C(F)(F)F)ccn4)cc3)c3c(N)nccn23)C1 [Example 42] | nM | 22.9

====

Attribute: log10 of IC50
Target: BTK enzyme (recombinant full-length BTK, hBTK) (Homo sapiens (Human), UniProt Q06187)
Sequence (Q06187 whole entry): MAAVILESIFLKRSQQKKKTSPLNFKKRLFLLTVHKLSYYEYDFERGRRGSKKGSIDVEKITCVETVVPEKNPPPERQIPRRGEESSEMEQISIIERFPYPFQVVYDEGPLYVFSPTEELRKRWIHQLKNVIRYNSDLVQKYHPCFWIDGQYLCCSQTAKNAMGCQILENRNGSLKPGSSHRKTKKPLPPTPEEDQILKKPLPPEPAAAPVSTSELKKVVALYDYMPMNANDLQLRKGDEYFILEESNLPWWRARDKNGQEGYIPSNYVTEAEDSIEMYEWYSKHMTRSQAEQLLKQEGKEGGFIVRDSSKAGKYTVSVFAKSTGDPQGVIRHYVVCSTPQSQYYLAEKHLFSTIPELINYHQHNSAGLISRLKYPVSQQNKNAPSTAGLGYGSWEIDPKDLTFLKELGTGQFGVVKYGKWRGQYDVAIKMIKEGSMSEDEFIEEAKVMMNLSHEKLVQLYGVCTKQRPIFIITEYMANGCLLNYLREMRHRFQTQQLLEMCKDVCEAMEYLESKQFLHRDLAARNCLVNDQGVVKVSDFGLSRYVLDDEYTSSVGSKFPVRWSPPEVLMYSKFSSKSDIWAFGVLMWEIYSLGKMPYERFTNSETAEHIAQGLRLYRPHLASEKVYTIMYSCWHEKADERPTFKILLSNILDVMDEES
Assay: Btk enzyme activity assay, LANCE TR-FRET
Details: 50 pM hBTK, 2 μM biotin-A5-peptide, 25 μM ATP; 60 minute compound & enzyme incubation; read-out: BTK binding IC50
Measured quantity: log10 of IC50 (log10 of the value in nM)

Molecule | log10 of IC50
COc1cc(C(=O)Nc2cc(C(F)(F)F)ccn2)ccc1-c1nc([C@H]2CN(C(=O)C34CC(C(=O)O)(C3)C4)[C@@H](C)CO2)n2ccnc(N)c12 | -0.12
CCOc1cc(C(=O)Nc2cc(C3CC3)ccn2)cc(F)c1-c1nc([C@@H]2CC[C@](C)(C(=O)O)C2(C)C)n2ccnc(N)c12 | -0.43
CC(C)(C(=O)O)N1CCC[C@@H](c2nc(-c3ccc(C(=O)Nc4cc(C(F)(F)F)ccn4)cc3F)c3c(N)nccn23)C1 | 0.97
CCOc1cc(C(=O)Nc2cc(C(F)(F)F)ccn2)cc(F)c1-c1nc([C@@H]2CC[C@](C)(C(=O)O)C2(C)C)n2c(F)cnc(N)c12 | 0.11
CC(C)(C(=O)O)C1CCC(c2nc(-c3ccc(C(=O)Nc4cc(C(F)(F)F)ccn4)cc3)c3c(N)nccn23)C1 (stereo not drawn) [Example 96] | 0.60
Nc1nccn2c([C@H]3CC[C@@H](C(=O)N4CC[C@@H](C(=O)O)C4)C3)nc(-c3ccc(C(=O)Nc4cc(C(F)(F)F)ccn4)cc3)c12 | -0.21
CCOc1cc(C(=O)Nc2cc(C(F)(F)F)ccn2)c(F)cc1-c1nc([C@@H]2CC[C@](C)(C(=O)O)C2(C)C)n2ccnc(N)c12 | -0.04
CCOc1cc(C(=O)Nc2cc(C(F)(F)F)ccn2)ccc1-c1nc([C@@H]2CC[C@](C)(C(=O)O)C2(C)C)n2ccnc(N)c12 | -0.35
COc1cc(C(=O)Nc2cc(C(F)(F)F)ccn2)ccc1-c1nc([C@H]2CN(C(C)(C)C(=O)O)CCO2)n2ccnc(N)c12 | 1.79
C[C@]1(C(=O)O)CC[C@H](N2CCO[C@@H](c3nc(-c4ccc(C(=O)Nc5cc(C(F)F)ccn5)cc4)c4c(N)ncc(Cl)n34)C2)CC1 [Example 195] | 0.00
CCOc1cc(C(=O)Nc2cc(C(F)(F)F)ccn2)ccc1-c1nc([C@@H]2CC[C@H](C(C)C)[C@H](C(=O)O)C2)n2ccnc(N)c12 | 0.60
COc1cc(C(=O)Nc2cc(C(F)(F)F)ccn2)ccc1-c1nc([C@H]2CCC[C@@H](C(=O)O)C2)n2ccnc(N)c12 | 1.61

====

Test system: HeLa cells
Experiment: [3H] Adenosine uptake assay
Format: cell-based
Conditions: Homo sapiens, HeLa, accumulation of tritiated adenosine into HeLa cells; compound concentration range 10 μM to 0.032 nM; read-out: ADU inhibition IC50 (adenosine uptake inhibition potency)
Binary label based on IC50 with cut-off 6 µM: below gives class 1, not below gives class 0.

Compound | Label class
CC1(C)[C@@H](c2nc(-c3ccc(C(=O)Nc4cc(C(F)(F)F)ccn4)cc3)c3c(N)nccn23)CC[C@@]1(C)C(=O)O | class 1
CC1(C(=O)O)CCC(c2nc(-c3ccc(C(=O)Nc4cc(C(F)(F)F)ccn4)cc3)c3c(N)ncc(Cl)n23)CC1 (stereo not drawn) | class 1
C[C@H]1CO[C@@H](c2nc(-c3ccc(C(=O)Nc4cc(C(F)F)ccn4)cc3)c3c(N)nccn23)CN1[C@H]1CC[C@](C)(C(=O)O)CC1 | class 0
CC(C)[C@]1(C(=O)O)CC[C@@H](c2nc(-c3ccc(C(=O)Nc4cc(C(F)(F)F)ccn4)cc3)c3c(N)ncc(Cl)n23)C1 | class 1
CCOc1cc(C(=O)Nc2cc(C(F)(F)F)ccn2)ccc1-c1nc([C@@H]2CC[C@@](C(=O)O)(C(C)C)C2)n2ccnc(N)c12 | class 0

====

Biological target: BTK enzyme (recombinant full-length BTK, hBTK) (Homo sapiens (Human))
Test: Btk enzyme activity assay, LANCE TR-FRET
Format: biochemical
Settings: 50 pM hBTK, 2 μM biotin-A5-peptide, 25 μM ATP; 60 minute compound & enzyme incubation; read-out: BTK binding IC50
Binary label based on IC50 with cut-off 600 pM: below gives rule met, not below gives rule not met.

Molecule | Target or system | Label class
CC(C)[C@]1(C(=O)O)CC[C@H](c2nc(-c3ccc(C(=O)Nc4cc(C(F)(F)F)ccn4)cc3Cl)c3c(N)nccn23)C1 [Example 92] | BTK enzyme (recombinant full-length BTK, hBTK) (Homo sapiens (Human)) | rule met
CCOc1cc(C(=O)Nc2cc(C(F)(F)F)ccn2)ccc1-c1nc(C2(C)CCC(C)(C(=O)O)CC2)n2ccnc(N)c12 (centres unmarked) [Example 78] | BTK enzyme (recombinant full-length BTK, hBTK) (Homo sapiens (Human)) | rule not met
CC(C)(C(=O)O)C1CCC(c2nc(-c3ccc(C(=O)Nc4cc(C(F)(F)F)ccn4)cc3)c3c(N)nccn23)C1 (centres unmarked) [Example 97] | BTK enzyme (recombinant full-length BTK, hBTK) (Homo sapiens (Human)) | rule not met
C[C@@]1(C(=O)O)CC[C@@](C)(c2nc(-c3ccc(C(=O)Nc4cc(C(F)(F)F)ccn4)cc3F)c3c(N)nccn23)C1 [Example 136] | BTK enzyme (recombinant full-length BTK, hBTK) (Homo sapiens (Human)) | rule met
CCOc1cc(C(=O)Nc2cc(C(F)(F)F)ccn2)ccc1-c1nc(C2(C)CCC(C)(C(=O)O)C2)n2ccnc(N)c12 (centres unmarked) [Example 22] | BTK enzyme (recombinant full-length BTK, hBTK) (Homo sapiens (Human)) | rule not met
CCOc1cc(C(=O)Nc2cc(C(F)(F)F)ccn2)ccc1-c1nc([C@@H]2CC[C@@](C(=O)O)(C(C)C)C2)n2c(Cl)cnc(N)c12 [Example 109] | BTK enzyme (recombinant full-length BTK, hBTK) (Homo sapiens (Human)) | rule not met
CC1(C)[C@@H](C(=O)O)CC[C@]1(C)c1nc(-c2ccc(C(=O)Nc3cc(C(F)(F)F)ccn3)cc2)c2c(N)nccn12 [Example 147] | BTK enzyme (recombinant full-length BTK, hBTK) (Homo sapiens (Human)) | rule not met
Nc1nccn2c([C@@H]3CC[C@H]4[C@H](C(=O)O)[C@H]43)nc(-c3ccc(C(=O)Nc4cc(C(F)(F)F)ccn4)cc3)c12 [Example 56] | BTK enzyme (recombinant full-length BTK, hBTK) (Homo sapiens (Human)) | rule met
C[C@]1(C(=O)O)CC[C@](C)(c2nc(-c3ccc(C(=O)Nc4cc(C(F)(F)F)ccn4)cc3)c3c(N)nccn32)CC1 [Example 30] | BTK enzyme (recombinant full-length BTK, hBTK) (Homo sapiens (Human)) | rule not met
C[C@H]1CO[C@@H](c2nc(-c3ccc(C(=O)Nc4cc(C5CC5)ccn4)cc3F)c3c(N)nccn23)CN1[C@H]1CC[C@](C)(C(=O)O)CC1 [Example 210] | BTK enzyme (recombinant full-length BTK, hBTK) (Homo sapiens (Human)) | rule not met
